Numbers sourced from patent US20170145104A1.

Target: T1, human GITR, membrane bound (on activated human T cells and on 3A9-hGITR cells) (human, UniProt Q9Y5U5 26-241)
T1 construct: whole, on cells; the cell is named under assay; also called huGITR; TNFRSF18
T1 sequence (looked up): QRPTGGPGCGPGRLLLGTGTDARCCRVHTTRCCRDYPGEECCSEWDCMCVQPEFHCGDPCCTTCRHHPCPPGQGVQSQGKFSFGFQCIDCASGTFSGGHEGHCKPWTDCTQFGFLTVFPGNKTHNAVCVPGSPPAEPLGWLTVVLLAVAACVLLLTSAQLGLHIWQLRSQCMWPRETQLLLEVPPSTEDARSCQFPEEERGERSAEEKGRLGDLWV
Experiment: FACS binding to 3A9-hGITR transfectant, Geo-MFI (PE); EC50 table beside the curves; unit from the axis
Reported EC50 values for a set of binders
Return type: number; implicit unit nM.

Example binders with recorded EC50:
- 28F3 VH CDR3 mutant M98F, M111L (antibody, V domains shown, also called B1) VH: QVQLVESGGGVVQPGRSLRLSCAASGFTFSSYGMHWVRQAPGKGLEWVAVIWYEGSNKYYADSVKGRFTISRDNSKNTLYLQMNSLRAEDTAVYYCARGGSFVRGDYYYGLDVWGQGTTVTVSS VL: AIQLTQSPSSLSASVGDRVTITCRASQGISSALAWYQQKPGKAPKLLIYDASSLESGVPSRFSGSGSGTDFTLTISSLQPEDFATYYCQQFNSYPYTFGQGTKLEIK: 51.8
- 28F3 VH CDR3 mutant M98I, M111F (antibody, V domains shown, also called D2) VH: QVQLVESGGGVVQPGRSLRLSCAASGFTFSSYGMHWVRQAPGKGLEWVAVIWYEGSNKYYADSVKGRFTISRDNSKNTLYLQMNSLRAEDTAVYYCARGGSIVRGDYYYGFDVWGQGTTVTVSS VL: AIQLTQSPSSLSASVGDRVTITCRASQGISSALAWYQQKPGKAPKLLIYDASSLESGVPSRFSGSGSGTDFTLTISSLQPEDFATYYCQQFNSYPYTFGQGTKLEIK: 1.33

Query: Any idea what EC50 was measured for 28F3 VH CDR3 mutant M98Y, D106E, M111L (antibody, V domains shown, also called H3) VH: QVQLVESGGGVVQPGRSLRLSCAASGFTFSSYGMHWVRQAPGKGLEWVAVIWYEGSNKYYADSVKGRFTISRDNSKNTLYLQMNSLRAEDTAVYYCARGGSYVRGEYYYGLDVWGQGTTVTVSS VL: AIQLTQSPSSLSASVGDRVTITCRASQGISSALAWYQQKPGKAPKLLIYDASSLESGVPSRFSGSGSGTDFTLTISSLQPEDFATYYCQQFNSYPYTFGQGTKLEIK ?
Reply: 183

Query: Any idea what EC50 was measured for 28F3 VH CDR3 mutant M98F, D106E, M111L (antibody, V domains shown, also called B3) VH: QVQLVESGGGVVQPGRSLRLSCAASGFTFSSYGMHWVRQAPGKGLEWVAVIWYEGSNKYYADSVKGRFTISRDNSKNTLYLQMNSLRAEDTAVYYCARGGSFVRGEYYYGLDVWGQGTTVTVSS VL: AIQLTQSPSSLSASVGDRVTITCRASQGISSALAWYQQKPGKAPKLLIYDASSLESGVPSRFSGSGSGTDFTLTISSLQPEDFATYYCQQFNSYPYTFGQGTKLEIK ?
Reply: 417

Query: Any idea what EC50 was measured for 28F3 VH CDR3 mutant M98L, M111F (antibody, V domains shown, also called C2) VH: QVQLVESGGGVVQPGRSLRLSCAASGFTFSSYGMHWVRQAPGKGLEWVAVIWYEGSNKYYADSVKGRFTISRDNSKNTLYLQMNSLRAEDTAVYYCARGGSLVRGDYYYGFDVWGQGTTVTVSS VL: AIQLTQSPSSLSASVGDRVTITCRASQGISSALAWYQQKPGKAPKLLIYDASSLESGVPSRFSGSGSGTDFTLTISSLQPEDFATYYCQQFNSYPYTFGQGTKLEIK ?
Reply: 1.38
